Target: FGFR1 (UniProt P11362)
Sequence (P11362 whole entry, looked up): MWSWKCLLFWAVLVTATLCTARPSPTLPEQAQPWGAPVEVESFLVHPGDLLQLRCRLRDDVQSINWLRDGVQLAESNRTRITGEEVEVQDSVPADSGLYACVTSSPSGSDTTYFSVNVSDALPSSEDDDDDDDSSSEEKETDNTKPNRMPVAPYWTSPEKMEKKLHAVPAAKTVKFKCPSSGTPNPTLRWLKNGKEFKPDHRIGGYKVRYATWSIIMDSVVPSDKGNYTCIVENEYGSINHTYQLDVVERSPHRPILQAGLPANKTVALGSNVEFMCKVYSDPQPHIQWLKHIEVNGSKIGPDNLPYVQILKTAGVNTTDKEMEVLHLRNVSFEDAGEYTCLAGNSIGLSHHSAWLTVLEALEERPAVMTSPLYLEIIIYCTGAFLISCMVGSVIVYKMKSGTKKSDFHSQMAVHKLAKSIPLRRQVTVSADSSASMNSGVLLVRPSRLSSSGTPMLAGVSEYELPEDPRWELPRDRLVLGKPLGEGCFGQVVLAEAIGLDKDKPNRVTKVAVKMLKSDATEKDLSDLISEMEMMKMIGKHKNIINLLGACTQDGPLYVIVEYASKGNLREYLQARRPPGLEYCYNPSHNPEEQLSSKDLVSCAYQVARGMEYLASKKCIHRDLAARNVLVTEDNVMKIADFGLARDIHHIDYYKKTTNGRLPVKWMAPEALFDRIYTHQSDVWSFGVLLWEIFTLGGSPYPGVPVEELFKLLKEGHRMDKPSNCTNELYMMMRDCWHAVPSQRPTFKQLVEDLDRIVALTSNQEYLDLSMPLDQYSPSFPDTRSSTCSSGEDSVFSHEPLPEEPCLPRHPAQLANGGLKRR
Experiment: phosphorylation enrichment, bacterial display (enrichment ratio); higher = better substrate or ligand; peptides without Tyr show the background
Task for the reader: assign each of the following sequences its reported phosphorylation enrichment.
One number for each entry.

1. HRDSSYFWEIE [RAF1_Y340_Q335H_YF] | 1.02
2. CPFNLYAEQFS [HGD_Y40_L44F_YF] | 0.747

Below is a list of sequences. For each, state its recorded phosphorylation enrichment.
1. RMDGTYACSFT [FLNB_Y704_YF]
2. EEGNPYYSSTR [MCCC2_Y520_A524T]
3. VDLIVYLWTNP [TK2_Y181_R183W]
4. RLRKYHLGKYL [KLB_Y906_Y906H]
5. VPLLEYFRDIF [CDAN1_Y712_YF]
6. QKMADYSNKLH [PDPR_Y104_Y109H]
7. ETSHNYHKFDS [MATR3_Y243]

0.836
0.672
0.483
0.29
0.687
0.527
0.393

* * *

Tested on: AncSZ
Assay: phosphorylation enrichment, bacterial display (enrichment ratio); higher = better substrate or ligand; peptides without Tyr show the background
Would you mind labelling by phosphorylation enrichment? At or over 0.9 is Satisfied, under is Not satisfied.

1. PEFMVYKPQME [CCRL2_Y170_V168M] | Satisfied
2. SYKNKYGMVAQ [APOB_Y276] | Not satisfied
3. DKNSSYFADWF [TUBB8_Y340_L345F] | Satisfied
4. EAVKNYTEKRG [PBRM1_Y672_D674E] | Not satisfied
5. ETKKQYDSFTF [TMED3_Y85_YF] | Not satisfied
6. MHDSNCVSKGS [PDGFRA_Y849_Y849C] | Not satisfied
7. GKTQQYECKWF [BCR_Y751_D752E_YF] | Not satisfied
8. SVVLPYEPPEV [TP53_Y220_V218L] | Satisfied
9. AQESNYRLLRQ [SLC20A2_Y377_R382Q] | Not satisfied
10. TPTFPYLLPKS [PLD2_Y580_YF] | Not satisfied

Evaluate FQHLRYIKQLG [SAMHD1_Y146_R143H] : phosphorylation enrichment at minimum 0.9?
Not satisfied

Next sequence: RDMNACIRPSP [MMAA_Y207_Y207C]
Satisfied

* * *

Target: SHP2-C SH2
Experiment: SH2 binding enrichment of the phosphorylated peptide, bacterial display (enrichment ratio); higher = better substrate or ligand; peptides without Tyr show the background
MEASUREMENT KIND: SH2 binding enrichment
One number for each entry.

1. PTDCVYVMPTV [MYO7A_Y1668_S1666C] | 0.716

Below is a list of sequences. For each, state its recorded SH2 binding enrichment.
1. KIVQDYLEKFY [MMP8_Y36_T32I]
2. FDSPFYQDSLP [TSC1_Y508_R509Q]
3. ELPEKYSQNIC [PKP2_Y626_Y631C]
4. FTRNYYVRAVL [CYBA_Y88]
5. PESCFYKESWL [IQGAP2_Y630_L629F]
6. IFHLSYIHNCE [PDE6B_Y227_L228I_YF]
7. SVTCTYFPALN [TP53_Y126_S127F]
8. ILIFHYAKGQP [MPZ_Y82_S78L]

1. 0.812
2. 0.688
3. 0.703
4. 0.78
5. 0.823
6. 0.856
7. 0.747
8. 1.27

Below is a list of sequences. For each, state its recorded SH2 binding enrichment.
1. HSVLNYGVCVC [JAK2_Y613_L609S]
2. EKKKKYMLPLD [DNM2_Y563_E560K]
3. CFVFFYSFLLK [PTEN_Y178_R173C_YF]

[0.929, 0.436, 1.8]

Below is a list of sequences. For each, state its recorded SH2 binding enrichment.
1. SAVTGYRVDVI [FN1_Y937]
2. LQKPMYEVQWK [KIT_Y553]

1: 0.514; 2: 0.633

Below is a list of sequences. For each, state its recorded SH2 binding enrichment.
1. EGDGVYTLNNE [HP_Y125]
2. HICTAYKLVLA [DHCR24_Y190_E191K]
3. IALNSYHSRNC [IFNGR1_Y397]
4. GVYSRHFTTYD [CLCA1_Y661_Y661H]
5. DDERGYRRVRC [GIGYF2_Y268_S273C]
6. QDTSRYTVSNL [BIRC3_Y245]
7. GFILMYDITNK [RAB3C_Y110_E115K]
8. DAVAVYDGKIS [SH2D1A_Y7_H8D]

[0.709, 0.56, 0.814, 0.714, 0.788, 0.54, 0.727, 0.999]

* * *

Task for the reader: assign each of the following sequences its reported phosphorylation enrichment.
Test system: c-Src
Test: phosphorylation enrichment, bacterial display (enrichment ratio); higher = better substrate or ligand; peptides without Tyr show the background
Give bare numbers.

1. HEVHIYENSGA [ARPC1B_Y35_K37N] | 0.865

Below is a list of sequences. For each, state its recorded phosphorylation enrichment.
1. GESQGYDIMEP [MSH2_Y863]
2. IIRQLYLKWHP [SACS_Y4333_R4331Q]
3. FVSIVCNDSGE [TSC2_Y1650_Y1650C]
4. GVMLLYYGRYN [ADGRD1_Y85_T82M]
5. FDGKEYDPVEA [MAPRE2_Y167_YF]
6. IRQDDYESLKE [MTR_Y921_H920D]
7. LAVNPYGPPDP

1: 0.419; 2: 0.509; 3: 0.478; 4: 2.23; 5: 0.573; 6: 0.533; 7: 0.523

Below is a list of sequences. For each, state its recorded phosphorylation enrichment.
1. DVRQEYPGMIL [PLXND1_Y616]
2. MIAIRYSHSRR [ACOXL_Y260_T255M]

1: 0.403; 2: 0.426

Below is a list of sequences. For each, state its recorded phosphorylation enrichment.
1. FGGRDYSLDEF [MYOF_Y1705_YF]
2. TWEKPYECVQC [ZNF24_Y335_G331W]
3. ILIFHYAKGQP [MPZ_Y82_S78L]
4. TGGLEYIVPLM [CLCN4_Y548]
5. FVKEPYIQSRF [HIPK4_Y175_YF]
6. SYPHEYGSQEG [RBM10_Y48_R46H]
7. DLEKTYNTYRS [B4GALNT2_Y538_A533D]

1: 0.542; 2: 0.887; 3: 0.508; 4: 0.417; 5: 0.418; 6: 0.415; 7: 1.03

Below is a list of sequences. For each, state its recorded phosphorylation enrichment.
1. PNATLYKMSSI [SERPINA7_Y40]
2. ADARMYGVLPR [PLP1_Y207_W212R]
3. ETCLAYREKRI [TEKT1_Y118]
4. SVTCTYFPALN [TP53_Y126_S127F]
5. VKKKLYEEIDQ [CYP17A1_Y329]

0.349
0.727
0.423
0.452
0.361

Below is a list of sequences. For each, state its recorded phosphorylation enrichment.
1. FGSVDCWEKFF [EEF1AKNMT_Y16_Y16C]
2. ISRASYFRKGG [ALK_Y1282_Y1278S_YF]
3. PSPMPYAFCQM [FOXL2_Y215_S217F]
4. VPLLEYFRDIF [CDAN1_Y712_YF]
5. EFKDAYKFAAD [BRDT_Y335_YF]
6. ALMGLYHGQVL [HADHA_Y343]

1: 0.461; 2: 0.506; 3: 1.99; 4: 0.52; 5: 0.447; 6: 1.28

If you can, please state the reported phosphorylation enrichment value of GLGGVYGGASG [KRT8_Y54_G53V] .
0.702

* * *

Biological target: Grb2 SH2 (UniProt P62993)
Sequence (P62993 whole entry, looked up): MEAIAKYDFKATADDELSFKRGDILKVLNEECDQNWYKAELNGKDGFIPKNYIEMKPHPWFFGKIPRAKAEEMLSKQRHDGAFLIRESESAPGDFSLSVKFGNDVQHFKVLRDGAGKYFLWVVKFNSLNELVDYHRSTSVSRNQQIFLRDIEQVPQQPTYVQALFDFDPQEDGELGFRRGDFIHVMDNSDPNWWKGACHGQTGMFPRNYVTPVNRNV
Test: SH2 binding enrichment of the phosphorylated peptide, bacterial display (enrichment ratio); higher = better substrate or ligand; peptides without Tyr show the background
Task for the reader: assign each of the following sequences its reported SH2 binding enrichment.
Give bare numbers.

1) PGAGHYEDTIL [ALK_Y1604] | 0.797

Below is a list of sequences. For each, state its recorded SH2 binding enrichment.
1. QADIIYVNTQL [MERTK_Y872_V870I]
2. ALLTKYSRSSM [DSCC1_Y374_H376R]
3. PFQGAYLKINK [MYO1B_Y967_E969K]
4. KPIETYFSKNY [PLP1_Y50_L46P]
5. LDYNEYFRGLN [HPRT1_Y198_D201G]
6. RTTKTYFPHFD [HBA1_Y43_P38R]
7. RENGPYFASFP [GDAP2_Y487_T489A_YF]
8. SDLTDYLMKIL [ACTA1_Y190_R185S]

1: 0.916; 2: 0.847; 3: 1.11; 4: 0.851; 5: 0.865; 6: 1.28; 7: 0.812; 8: 1.16
